test system: Escherichia coli TOP10; test: shrunken log2 fold change of peptide-encoding DNA abundance (4.5 h post-induction vs induction); higher = less antimicrobial activity (less host growth inhibition); conditions: time post-induction: 4.5 h; library: site-saturation at positions 5, 18, 19, 20
Hi there, I'd appreciate the recorded shrunken log2 fold change for every entry that follows.
API note: the answer field is a bare number with no unit suffix.

Reported shrunken log2 fold change, sequence "RRIRMRPPRLPRPRPRPPVCPRP" : ____
0.439

Queued: "RRIRIRPPRLPRPRPRPMMSPRP"
-0.00118

Repeat with "RRIRIRPPRLPRPRPRPIHSPRP"
-0.302

And the next one, "RRIRYRPPRLPRPRPRPNNNPRP" ?
-0.989

Entry to check: "RRIRMRPPRLPRPRPRPVDCPRP"
0.029

Moving on to "RRIRWRPPRLPRPRPRPGRCPRP"
0.897

Continue with "RRIRYRPPRLPRPRPRPIIWPRP"
-0.152

Next entry: "RRIRTRPPRLPRPRPRPEYHPRP"
-0.00732

Queued: "RRIRHRPPRLPRPRPRPTNQPRP"
-0.425

Same again, this time with "RRIRVRPPRLPRPRPRPLWVPRP"
-0.147

How about this sequence: "RRIRWRPPRLPRPRPRPGSRPRP"
0.244

Record: "RRIRSRPPRLPRPRPRPSGMPRP"
-0.311

Would you mind doing "RRIRERPPRLPRPRPRPNHCPRP" as well?
-0.0763

Next entry: "RRIRCRPPRLPRPRPRPYQEPRP"
-0.276

Another sequence to look at: "RRIRERPPRLPRPRPRPIFHPRP"
-0.395

----------
Please respond with reported shrunken log2 fold change for every item in the list.
test system: Escherichia coli TOP10; assay: shrunken log2 fold change of peptide-encoding DNA abundance (4.5 h post-induction vs induction); higher = less antimicrobial activity (less host growth inhibition); conditions: time post-induction: 4.5 h; library: site-saturation at positions 5, 18, 19, 20;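 note: peptides expressed intracellularly from a pBAD plasmid library in pooled LB shake-flask culture, induced with 0.3% L-arabinose, DNA abundance read by NGS, three biological replicates, DESeq2 with apeglm shrinkage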
The reply should be a number, written without any unit.

Provide value of shrunken log2 fold change for this record tested with Escherichia coli TOP10: "RRIRGRPPRLPRPRPRPECRPRP"
1.32

Next entry: "RRIRNRPPRLPRPRPRPIKQPRP"
-0.0298

Also "RRIRCRPPRLPRPRPRPPCRPRP" , if possible.
0.609

Queued: "RRIRSRPPRLPRPRPRPTPMPRP"
0.61

Item: "RRIRYRPPRLPRPRPRPRETPRP"
-0.0404

Subsequent entry: "RRIRGRPPRLPRPRPRPPLEPRP"
1.2

How about this sequence: "RRIRFRPPRLPRPRPRPWNDPRP"
-0.243

Entry "RRIRSRPPRLPRPRPRPVSAPRP" please
2.53

Check "RRIRMRPPRLPRPRPRPSGPPRP" too.
0.205

Quick one: "RRIRLRPPRLPRPRPRPIKIPRP"
0.0507

Same again, this time with "RRIRQRPPRLPRPRPRPKTYPRP"
-0.241

Now consider "RRIRERPPRLPRPRPRPGHEPRP" .
0.159

Next entry: "RRIRWRPPRLPRPRPRPQHPPRP"
0.0134

Thanks! And "RRIRQRPPRLPRPRPRPGCDPRP" ?
-0.229

Param item: "RRIRARPPRLPRPRPRPVCNPRP"
0.0721

Entry to check: "RRIRTRPPRLPRPRPRPDYWPRP"
-0.149

// next record "RRIRRRPPRLPRPRPRPEENPRP"
0.157

Repeat with "RRIRRRPPRLPRPRPRPNWTPRP"
-0.285

Same lookup for "RRIRRRPPRLPRPRPRPVHCPRP" , please.
0.345

Also "RRIRHRPPRLPRPRPRPDMHPRP" ?
-0.329

And what about the sequence "RRIRQRPPRLPRPRPRPQDVPRP" ?
-0.0199

Can you check "RRIRARPPRLPRPRPRPVIAPRP" next?
0.161

And then "RRIRFRPPRLPRPRPRPFEHPRP" , what is it?
-0.0558

Same thing, different sequence: "RRIRGRPPRLPRPRPRPVNEPRP"
0.517

Okay, and "RRIRSRPPRLPRPRPRPNRPPRP" ?
-0.0188

Entry "RRIRERPPRLPRPRPRPKTSPRP" please
-0.102

Input "RRIRYRPPRLPRPRPRPYHQPRP"
-0.662

Try this sequence next: "RRIRLRPPRLPRPRPRPWMFPRP"
-0.108

Also, "RRIRWRPPRLPRPRPRPSERPRP" please.
0.415

Now the sequence "RRIRARPPRLPRPRPRPMDEPRP"
1.02

And what about the sequence "RRIRYRPPRLPRPRPRPEHNPRP" ?
-0.0212

Then "RRIRARPPRLPRPRPRPQVWPRP" ?
0.275
